Every entry's value here was drawn from paper PMC7245249.

# Tested on: Human coronavirus OC43
# protocol_summary: microbe, parasite or virus in culture
# Assay type: cell-based, Human coronavirus OC43 (HCoV-OC43)
# assay_context: Betacoronavirus 1, OC43, HCT-8, 72 h, read-out: EC50 (IFA), Human coronavirus OC43
Structures can show the parent of a compound that is named as a salt.
reported_metric: log10(EC50) (log10 of the value in µM)
Quick note: numbers are log10 of EC50, with µM as the unit.

See these solved cases before continuing.
| compound | reported_metric | assay_result |
| --- | --- | --- |
| N#C[C@@]1(c2ccc3c(N)ncnn23)O[C@H](CO)[C@@H](O)[C@H]1O | log10(EC50) | 0.83 |
| Cc1nc2c([nH]1)-c1ccccc1N(C(=O)c1ccc(NC(=O)c3ccccc3-c3ccccc3)cc1)CC2 | log10(EC50) | 1.09 |

log10(EC50) in this record for CS(=O)(=O)c1ccc(C(=O)Nc2ccc(Cl)c(-c3ccccn3)c2)c(Cl)c1 : 1.68

log10(EC50) in this record for CC[C@@H](C(=O)[C@@H](C)[C@@H](O)[C@H](C)[C@@H]1O[C@@H]([C@@H](CC)C(=O)O)CC[C@@H]1C)[C@H]1O[C@]2(C=C[C@@H](O)[C@]3(CC[C@@](C)([C@H]4CC[C@](O)(CC)[C@H](C)O4)O3)O2)[C@H](C)C[C@@H]1C : 0.76

log10(EC50) in this record for CC[C@H]1/C=C/C=C/C[C@@H](C)[C@H](O)[C@@](C)(O)C(=O)[C@@H](C)[C@H](O)[C@@H](C)C(=O)[C@@H](C)[C@H](O)[C@@H](C)/C=C/C(=O)O[C@@H]2[C@H](C)[C@H](CC1)O[C@]1(CC[C@H](C)[C@H](C[C@@H](C)O)O1)[C@H]2C : 0.72

log10(EC50) in this record for O=C(Nc1ccc([N+](=O)[O-])cc1Cl)c1cc(Cl)ccc1O [Niclosamide] : 0.13

log10(EC50) in this record for Nc1ccn([C@@H]2O[C@H](CO)[C@@H](O)C2(F)F)c(=O)n1 [Gemcitabine (Hydrochloride), Gemcitabine] : 1.59

log10(EC50) in this record for O=C1C(O)=C([C@H]2CC[C@H](c3ccc(Cl)cc3)CC2)C(=O)c2ccccc21 : 0.83
